Origin of measurements: patent US11795460B2

# Tested on: TTR
# method_notes: TTR editing in primary cyno hepatocytes electroporated with Spy Cas9 protein and sgRNAs (Tables 14, 15)
# Assay type: cell-based, cynomolgus monkey
# experimental_parameters: Table 15; primary cyno hepatocytes electroporated with Spy Cas9 protein (RNP) and cyno specific sgRNAs
Strand notation (5' to 3'): a small letter for the sugar, then the base; units joined by * are phosphorothioate-linked, units joined directly phosphodiester-linked; [ ] holds rarer units or linkages, { } end groups; capitals alone tell only the bases. m = 2'-O-methyl; r = 2'-OH (RNA)
Avg % Deletion listing for selected molecules.

molecule	Avg % Deletion
G000502: TTR Cyno specific sgRNA modified sequence, SEQ ID No. 114; guide sequence of CR000689; cross homologous between mouse and cyno (nucleic acid) guide: mA*mC*mA*rCrArArArUrArCrCrArGrUrCrCrArGrCrGrGrUrUrUrUrArGrAmGmCmUmAmGmAmAmAmUmAmGmCrArArGrUrUrArArArArUrArArGrGrCrUrArGrUrCrCrGrUrUrArUrCrAmAmCmUmUmGmAmAmAmAmAmGmUmGmGmCmAmCmCmGmAmGmUmCmGmGmUmGmCmU*mU*mU*mU	81.27%
G000504: TTR Cyno specific sgRNA modified sequence, SEQ ID No. 116; guide sequence of CR005364 (nucleic acid) guide: mA*mA*mA*rGrGrCrUrGrCrUrGrArUrGrArGrArCrCrUrGrUrUrUrUrArGrAmGmCmUmAmGmAmAmAmUmAmGmCrArArGrUrUrArArArArUrArArGrGrCrUrArGrUrCrCrGrUrUrArUrCrAmAmCmUmUmGmAmAmAmAmAmGmUmGmGmCmAmCmCmGmAmGmUmCmGmGmUmGmCmU*mU*mU*mU	7.53%
G000508: TTR Cyno specific sgRNA modified sequence, SEQ ID No. 120; guide sequence of CR005368 (nucleic acid) guide: mC*mC*mU*rCrCrUrCrUrGrCrCrUrCrGrCrUrGrGrArCrGrUrUrUrUrArGrAmGmCmUmAmGmAmAmAmUmAmGmCrArArGrUrUrArArArArUrArArGrGrCrUrArGrUrCrCrGrUrUrArUrCrAmAmCmUmUmGmAmAmAmAmAmGmUmGmGmCmAmCmCmGmAmGmUmCmGmGmUmGmCmU*mU*mU*mU	4.17%
G000511: TTR Cyno specific sgRNA modified sequence, SEQ ID No. 123; guide sequence of CR005371 (nucleic acid) guide: mA*mA*mG*rUrGrArCrUrUrCrCrArGrUrArArGrArUrUrGrUrUrUrUrArGrAmGmCmUmAmGmAmAmAmUmAmGmCrArArGrUrUrArArArArUrArArGrGrCrUrArGrUrCrCrGrUrUrArUrCrAmAmCmUmUmGmAmAmAmAmAmGmUmGmGmCmAmCmCmGmAmGmUmCmGmGmUmGmCmU*mU*mU*mU	2.00%
G000505: TTR Cyno specific sgRNA modified sequence, SEQ ID No. 117; guide sequence of CR005365 (nucleic acid) guide: mC*mA*mU*rUrGrArCrArGrCrArGrGrArCrUrGrCrCrUrGrUrUrUrUrArGrAmGmCmUmAmGmAmAmAmUmAmGmCrArArGrUrUrArArArArUrArArGrGrCrUrArGrUrCrCrGrUrUrArUrCrAmAmCmUmUmGmAmAmAmAmAmGmUmGmGmCmAmCmCmGmAmGmUmCmGmGmUmGmCmU*mU*mU*mU	0.10%
G000510: TTR Cyno specific sgRNA modified sequence, SEQ ID No. 122; guide sequence of CR005370 (nucleic acid) guide: mA*mC*mU*rUrGrUrCrUrUrCrUrCrUrArUrArCrCrCrArGrUrUrUrUrArGrAmGmCmUmAmGmAmAmAmUmAmGmCrArArGrUrUrArArArArUrArArGrGrCrUrArGrUrCrCrGrUrUrArUrCrAmAmCmUmUmGmAmAmAmAmAmGmUmGmGmCmAmCmCmGmAmGmUmCmGmGmUmGmCmU*mU*mU*mU	1.77%
G000507: TTR Cyno specific sgRNA modified sequence, SEQ ID No. 119; guide sequence of CR005367 (nucleic acid) guide: mC*mC*mA*rGrUrCrCrArGrCrGrArGrGrCrArGrArGrGrGrUrUrUrUrArGrAmGmCmUmAmGmAmAmAmUmAmGmCrArArGrUrUrArArArArUrArArGrGrCrUrArGrUrCrCrGrUrUrArUrCrAmAmCmUmUmGmAmAmAmAmAmGmUmGmGmCmAmCmCmGmAmGmUmCmGmGmUmGmCmU*mU*mU*mU	4.60%
G000503: TTR Cyno specific sgRNA modified sequence, SEQ ID No. 115; guide sequence of CR005372 (nucleic acid) guide: mA*mA*mA*rArGrGrCrUrGrCrUrGrArUrGrArGrArCrCrGrUrUrUrUrArGrAmGmCmUmAmGmAmAmAmUmAmGmCrArArGrUrUrArArArArUrArArGrGrCrUrArGrUrCrCrGrUrUrArUrCrAmAmCmUmUmGmAmAmAmAmAmGmUmGmGmCmAmCmCmGmAmGmUmCmGmGmUmGmCmU*mU*mU*mU	6.50%
G000506: TTR Cyno specific sgRNA modified sequence, SEQ ID No. 118; guide sequence of CR005366 (nucleic acid) guide: mA*mU*mA*rCrCrArGrUrCrCrArGrCrGrArGrGrCrArGrGrUrUrUrUrArGrAmGmCmUmAmGmAmAmAmUmAmGmCrArArGrUrUrArArArArUrArArGrGrCrUrArGrUrCrCrGrUrUrArUrCrAmAmCmUmUmGmAmAmAmAmAmGmUmGmGmCmAmCmCmGmAmGmUmCmGmGmUmGmCmU*mU*mU*mU	3.07%
G000509: TTR Cyno specific sgRNA modified sequence, SEQ ID No. 121; guide sequence of CR005369 (nucleic acid) guide: mA*mA*mA*rGrUrUrCrUrArGrArUrGrCrCrGrUrCrCrGrGrUrUrUrUrArGrAmGmCmUmAmGmAmAmAmUmAmGmCrArArGrUrUrArArArArUrArArGrGrCrUrArGrUrCrCrGrUrUrArUrCrAmAmCmUmUmGmAmAmAmAmAmGmUmGmGmCmAmCmCmGmAmGmUmCmGmGmUmGmCmU*mU*mU*mU	49.73%
